growth: recorded values
Test system: SNB-75 CNS
Assay: NCI-60 one-dose screen, 48 h (100 = growth as untreated, 0 = no growth, -100 = all killed)
Conditions: 10 µM unless noted
The panel holds about 83,000 compounds, 20% with a hit somewhere; the sample as a whole holds those more often.

>  <molecule>
CCOC(=O)c1c(NC(=O)c2ccccc2)sc2c3c(ccc12)OCN(C)C3

>  <growth, %>
79.3

$$$$
>  <molecule>
CN(C)CCC(CCN(C)C)(C(=O)O)c1ccccc1

>  <growth, %>
97.2

$$$$
>  <molecule>
COC(=O)Cn1c2c(c3c(OC)cccc31)C(=O)c1ccccc1-2

>  <growth, %>
90.8

$$$$
>  <molecule>
CCC(C)(C)c1ccc(Nc2ccc(Nc3ccc(C(C)(C)CC)cc3)cc2)cc1

>  <growth, %>
93

$$$$
>  <molecule>
COc1cc([C@@H](CCO)C[C@H](C)c2ccc3ccccc3c2)cc(OC)c1OC

>  <growth, %>
-10

$$$$
>  <molecule>
O=C1OCC2=C1C(c1ccccc1)c1cc3c(cc1N2CCO)OCCO3 (stereo not drawn)

>  <growth, %>
-11.2

$$$$
>  <molecule>
Fc1cccc(CNc2c3ccccc3nc3ccccc23)c1

>  <growth, %>
63

$$$$
>  <molecule>
C=C1C(=O)O[C@H]2[C@H]1CC/C(CNC(=O)Cc1c[nH]c3ccccc13)=C\CC[C@@]1(C)O[C@@H]21

>  <growth, %>
73.9

$$$$
>  <molecule>
C=C(C)[C@@H]1CC[C@]2(C(=O)Nc3ccccn3)CC[C@]3(C)[C@H](CC[C@@H]4[C@@]5(C)CCCNC(C)(C)[C@@H]5CC[C@]43C)[C@@H]12

>  <growth, %>
33.4

$$$$
>  <molecule>
Cc1nc(N/N=C/c2cn(-c3ccccc3)nc2-c2cc3ccccc3oc2=O)sc1N=Nc1ccccc1

>  <growth, %>
50.4

$$$$
>  <molecule>
COC1C(O)CC(OC2CC(OC3CC(O[C@@H]4C(=O)c5c(cc6cc(OC7CC(OC8CC(O)C(O)C(C)O8)C(O)C(C)O7)c(C)c(O)c6c5O)CC4[C@H](OC)C(=O)C(C)=O)OC(C)C3O)OC(C)C2O)OC1C (stereo partly drawn)

>  <growth, %>
-80.9

$$$$
>  <molecule>
CCN(CC)CCCNc1cc(OC)c(OC)c2cccnc12

>  <growth, %>
102

$$$$
>  <molecule>
CCOC(=O)CC[C@H](NC(=O)c1ccc(N(C)Cc2cnc3nc(N)nc(N)c3n2)c2ccccc12)C(=O)OCC

>  <growth, %>
76

$$$$
>  <molecule>
CCCCCc1ccc(S(=O)(=O)Nc2cc(-c3csc(NC(C)=O)n3)ccc2N2CCN(C)CC2)cc1

>  <growth, %>
37.3

$$$$
>  <molecule>
COc1ccc(/C=C(/C(=O)N2CCNCC2)c2cc(OC)c(OC)c(OC)c2)cc1O

>  <growth, %>
28.1

$$$$
>  <molecule>
CNCCCNc1nc2ccccc2c2c(=O)c3cc(Cl)ccc3sc12

>  <growth, %>
61

$$$$
>  <molecule>
O=c1oc2c(cnc3ccccc32)cc1-c1cccc(Cl)c1

>  <growth, %>
95.6

$$$$
>  <molecule>
COc1ccc2c(c1)CC[C@@H]1[C@@H]2CC[C@]2(C)c3c(cc(C#N)c4c3sc3ccccc34)C[C@@H]12

>  <growth, %>
86

$$$$
>  <molecule>
CCOC(=O)C/C(=N\Nc1cc(=O)[nH]c2ccc(C)cc12)C(=O)OCC

>  <growth, %>
94.7

$$$$
>  <molecule>
O=S(=O)(Nc1cc(F)cc(F)c1)c1ccc(-c2cnc(C3CC3)o2)cc1

>  <growth, %>
-3.36

$$$$
>  <molecule>
COc1ccc(C/C(C)=C(\c2ccc(O)cc2)c2ccc(OCCN3CCCCC3)cc2)cc1

>  <growth, %>
77

$$$$
>  <molecule>
CC(C)(C)c1ccc(C(=O)N/N=C/c2ccc(O)cc2O)cc1

>  <growth, %>
37.6

$$$$
>  <molecule>
COc1ccc(-c2cn(Cc3cc4ccccc4s3)nn2)cc1OCCN1CCCCC1

>  <growth, %>
83.8

$$$$
>  <molecule>
CC/C(=C(/c1ccc(O)cc1)c1ccc(OCCN2CCCCC2)cc1)c1ccc(OC)cc1

>  <growth, %>
74.1

$$$$
>  <molecule>
O=S(=O)(Nc1cc(Sc2nc3ccccc3s2)c(O)c2ccccc12)c1ccc2ccccc2c1

>  <growth, %>
88.2

$$$$
>  <molecule>
O=C1c2cccnc2C(=O)c2c1c(C(=O)OCCc1ccccn1)c1ccccn21

>  <growth, %>
-85.3

$$$$
>  <molecule>
Cc1ccc(S(=O)(=O)c2nc(-c3ccccc3)oc2SCC(N)=O)cc1

>  <growth, %>
90.4

$$$$
>  <molecule>
O=c1cc(C(F)(F)F)c2cc(-c3cc4ccccc4c(=O)o3)c(O)cc2o1

>  <growth, %>
76.1

$$$$
>  <molecule>
Cc1cc(O)c(=O)cc2c1C[C@H]1CC(C)(C)/C=C/C[C@]3(C)Oc4cc(=O)c(O)cc(C)c4C[C@H]3C[C@H](O)[C@@]1(C)O2

>  <growth, %>
23.5

$$$$
>  <molecule>
O=C(/C=C/c1ccco1)Nc1ncc(Cc2cc(Cl)ccc2Cl)s1

>  <growth, %>
16.6

$$$$
>  <molecule>
COc1ccccc1/C=C/C(=O)Nc1ccc(F)cc1

>  <growth, %>
77.9

$$$$
>  <molecule>
C/C(=N\Nc1ccccc1)c1ccc(NC2=CC(=O)c3ccccc3C2=O)cc1

>  <growth, %>
51.1

$$$$
>  <molecule>
O=C1/C(=C/c2ccccn2)SC(=S)N1N1CCOCC1

>  <growth, %>
90.4

$$$$
